Listing of entries alongside the reported thermal shift delta Tm.
# Test system: LOC_OS05G07850-cb002;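 also: purified Escherichia coli-expressed rice kinase domain construct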
# experiment: thermal shift delta Tm vs DMSO control; higher = stronger stabilization (binding)
# experimental.conditions: 12.5 µM; protein concentration 2 µM
parameter.measured: thermal shift delta Tm (°C)

- CS(=O)(=O)c1cccc(CNc2nc(Nc3ccc4c(c3)CCC(=O)N4)ncc2C(F)(F)F)c1: 8.91
- CC(C)CC(=O)Nc1n[nH]c2c1CN(C(=O)C1CCN(C)CC1)C2(C)C: 0.58
- COc1cc2/c(=N/c3ccc(Br)cc3F)nc[nH]c2cc1OCC1CCN(C)CC1 [Vandetanib (ZD6474)]: 9.77
- COC(=O)c1ccc2c(c1)NC(=O)/C2=C(\Nc1ccc(N(C)C(=O)CN2CCN(C)CC2)cc1)c1ccccc1: 1.57
- Nc1cccc(S(=O)(=O)N2CCCN(S(=O)(=O)c3ccc4c(c3)OCCO4)CC2)c1: 0.55
- CCN(CC)CCNC(=O)c1c(C)[nH]c(/C=C2\C(=O)Nc3ccc(F)cc32)c1C: 8.4
- CCn1c(-c2nonc2N)nc2cnc(Oc3cccc(NC(=O)c4ccc(OCCN5CCOCC5)cc4)c3)cc21: 1.97
- NC(=O)c1ncn([C@@H]2O[C@H](CO)[C@@H](O)[C@H]2O)c1N: 0.57
